Here, each record is paired with measured CARBON DIOXIDE data.
Species on record: Rattus norvegicus
Assay: DrugMatrix - Regimen: Daily Repeat
Type: toxicity, organism-based, Sprague-Dawley
Design: regimen Daily Repeat, gender Male, age 6-8 weeks
Settings: in vivo, po, 0 mg/kg, 72 h, tissue Plasma, route oral GAVAGE, dose level Control, time 3 day, vehicle .5 % CMC
Readout type: CARBON DIOXIDE (mmol/L)

- Compound: "C[C@H]1[C@H](NC(=O)/C(=N\\OC(C)(C)C(=O)O)c2csc(N)n2)C(=O)N1S(=O)(=O)O"
  Readout type: "CARBON DIOXIDE"
  Unit text: "mmol/L"
  Measured: 27.5
- Compound: "CCOc1nc2cccc(C(=O)O)c2n1Cc1ccc(-c2ccccc2-c2nnn[nH]2)cc1"
  Readout type: "CARBON DIOXIDE"
  Unit text: "mmol/L"
  Measured: 30
- Compound: "C[C@@H]1O[C@@H](O[C@H]2C[C@@H](O)[C@]3(CO)[C@H]4[C@H](O)C[C@]5(C)[C@@H](C6=CC(=O)OC6)CC[C@]5(O)[C@@H]4CC[C@]3(O)C2)[C@H](O)[C@H](O)[C@H]1O"
  Readout type: "CARBON DIOXIDE"
  Unit text: "mmol/L"
  Measured: 25.5
- Compound: "C[C@@](Cc1ccc(O)c(O)c1)(NN)C(=O)O.O"
  Readout type: "CARBON DIOXIDE"
  Unit text: "mmol/L"
  Measured: 27.5
- Compound: "CCC1=C(C)CN(C(=O)NCCc2ccc(S(=O)(=O)NC(=O)N[C@H]3CC[C@H](C)CC3)cc2)C1=O [GLIMEPIRIDE]"
  Readout type: "CARBON DIOXIDE"
  Unit text: "mmol/L"
  Measured: 29.5
- Compound: "COc1ccccc1[N+](=O)[O-]"
  Readout type: "CARBON DIOXIDE"
  Unit text: "mmol/L"
  Measured: 27.5
- Compound: "NC(=O)N1c2ccccc2CC(=O)c2ccccc21 [OXCARBAZEPINE]"
  Readout type: "CARBON DIOXIDE"
  Unit text: "mmol/L"
  Measured: 34.33
- Compound: "C[C@]12CC[C@@H]3c4ccc(O)cc4CC[C@H]3[C@@H]1C[C@@H](O)[C@@H]2O"
  Readout type: "CARBON DIOXIDE"
  Unit text: "mmol/L"
  Measured: 25
- Compound: "CCCCC1=NC2(CCCC2)C(=O)N1Cc1ccc(-c2ccccc2-c2nnn[nH]2)cc1"
  Readout type: "CARBON DIOXIDE"
  Unit text: "mmol/L"
  Measured: 24.17
- Compound: "CN(C)C(=O)C(CCN1CCC(O)(c2ccc(Cl)cc2)CC1)(c1ccccc1)c1ccccc1 [LOPERAMIDE]"
  Readout type: "CARBON DIOXIDE"
  Unit text: "mmol/L"
  Measured: 29.5
- Compound: "COc1cc(OC)c(C(=O)CCCN2CCCC2)c(OC)c1"
  Readout type: "CARBON DIOXIDE"
  Unit text: "mmol/L"
  Measured: 29.17

All figures here come from ChEMBL document CHEMBL3885881.
